# Test system: SN12C renal
# MEASUREMENT NOTES: NCI-60 one-dose screen, 48 h
# CONDITIONS USED: 10 µM unless noted
The panel holds about 83,000 compounds, 20% with a hit somewhere; the sample as a whole holds those more often. Calls of active or inactive are those of the source. The calls were made as follows: active = growth percent below 10; inactive = the rest.
Allowed answers: 1.0 = active, 0.0 = inactive

CC(C)c1sc(NC(=O)c2cc(NC(=O)c3cc(NC(=O)c4cscn4)cn3C)cn2C)nc1C(=O)NCCCN(C)C | 0.0
Clc1cccc(N/N=C/c2c[nH]c3ccc(Br)cc23)n1 | 1.0
COc1c(F)ccc(C(=O)Nc2ccc3nc(NC(=O)C4CCCN(S(=O)(=O)c5cccc(Cl)c5)C4)sc3c2)c1F (centres undefined) | 0.0

Attention now shifts to the item below.
Any idea what this test logged for "CC(C)c1ccc2c(N)c(C(=O)Nc3ccc(C(F)(F)F)cn3)sc2n1" ?
0.0

---

# Test system: IGROV1 ovarian
# MEASUREMENT NOTES: NCI-60 one-dose screen, 48 h (100 = growth as untreated, 0 = no growth, -100 = all killed)
# CONDITIONS USED: 10 µM unless noted
The panel holds about 83,000 compounds, 20% with a hit somewhere; the sample as a whole holds those more often.
ASSAY READOUT: growth (%)
Answers are plain numbers, in %.

For each of the compounds below, note its growth.
1. S=C(Nc1ccccc1)Nc1ccc(OCc2nc3ccccc3[nH]2)cc1
2. Cn1cc(-c2nc(N)nnc2-c2c[nH]c3ccc(Br)cc23)c2cc(Br)cnc21
3. Brc1ccc(-c2n(Cc3ccc4ccccc4c3)c(-c3ccccc3)c(-c3ccccc3)[n+]2Cc2ccc3ccccc3c2)cc1
4. CN1CCN(c2ccc3c(c2)nc(NNC(=O)c2ncccn2)c2cccn23)CC1
5. Nc1nc(C(F)(F)F)cs1
6. COc1ccc(C(=O)/C=C/c2ccc(OCc3ccc(F)cc3)c(OC)c2)cc1OC
7. Cn1cc(-c2cc(N)n3nc(-c4c[nH]c5ccccc45)cc3n2)c2cccnc21
8. COc1ccc(/C=N/NC(=O)Cn2nc(Cc3ccc(OC)cc3)c3onc(C)c3c2=O)cc1

1: 56.3; 2: 14.2; 3: -81.7; 4: 11.3; 5: 107; 6: 17.5; 7: 28.1; 8: 77.6

For each of the compounds below, note its growth.
1. Cn1nc(C(F)(F)F)cc1-c1cc(Cl)c(COc2ccc(Cl)cc2)c(-c2ccc(Cl)c(C(F)(F)F)c2)c1O
2. CCOC(=O)c1ccc(Nc2nc(NN)nc(-c3ccc(F)cc3)c2C#N)cc1

1: 5.06; 2: 109

---

# Tested on: MCF7 breast
# MEASUREMENT NOTES: NCI-60 one-dose screen, 48 h (100 = growth as untreated, 0 = no growth, -100 = all killed)
# CONDITIONS USED: 10 µM unless noted
The panel holds about 83,000 compounds, 20% with a hit somewhere; the sample as a whole holds those more often.
ASSAY READOUT: growth (%)
Numbers only, in %.

Worked cases, growth given:
COc1ccc(/C=C2\C(=N)N=C(SCc3nc4ccccc4[nH]3)NC2=O)cc1 | 99.1
COc1ccc2[nH]cc(-c3nc(N)nnc3-c3cn(C)c4ncccc34)c2c1 | 25.6
Cc1ccc(S(=O)(=O)c2nc(S(=O)(=O)c3ccc(C)cc3)c(N3CCN(C)CC3)s2)cc1 | 43.1
CSc1ccc(C(=O)Nc2ccc3nn(/C(C#N)=C/c4ccccn4)nc3c2)cc1 | -78.6
CC(=O)OCC1OC(OC2C(COC(C)=O)OC(n3cc(COc4ccc5ccc(=O)oc5c4)nn3)C(OC(C)=O)C2OC(C)=O)C(OC(C)=O)C(OC(C)=O)C1OC(C)=O (stereo not given) | 90.9

For each of the compounds below, note its growth.
1. CCOC(=O)C1=C(N)N(c2ccccc2)C2=C(C(=O)CC(C)(C)C2)C1c1ccccc1Cl (stereo not given)
2. CC(/C=C1\SC(=S)N(CCCC(=O)NC(CC(C)C)C(=O)O)C1=O)=C\c1ccccc1 (stereo not given)
3. O=C(CCN1C(=O)/C(=C/c2ccc(F)cc2)SC1=S)N1CCOCC1
4. COc1ccc(NC(=O)[C@H](C)N)cc1C(=O)Nc1cccc(C2CC(=O)c3c(cc(OC)c(OC)c3OC)O2)c1 (stereo not given in full)
5. COc1ccc(C2(SCCNCc3cc(N(C)C)ccn3)c3ccccc3C=Cc3ccccc32)cc1

56.5
82.1
48.1
72.1
-5.08

For each of the compounds below, note its growth.
1. O=C1C(=Nc2ccc(F)c(Cl)c2)c2cccc3cccc1c23
2. CC(=O)Nc1ccc(-n2cnc3cc(-c4ccc(O)cc4)ccc32)cc1C(F)(F)F
3. O=C(Cn1c(/C=C/c2cccc([N+](=O)[O-])c2)nc2ccccc2c1=O)Nc1ccccc1
4. CCCSc1nc(NCCc2c[nH]c3ccccc23)c(C#N)c(-c2ccc(OC)cc2)n1
5. N#Cc1c(-c2ccccc2Cl)cc(-c2ccc3ccccc3c2)[nH]c1=O
6. Cc1nc(Nc2ccccn2)sc1C(=O)CC(SCC(=O)Nc1ccc(Cl)cc1)c1ccccc1F (stereo not given)

16.1
18.4
42.2
7.41
44.4
13.2

For each of the compounds below, note its growth.
1. O=C(/C=C/c1ccc(O)c(O)c1)NC1CCOC1O (stereo not given)
2. CC(=O)NNc1ccc2nnc(-c3ccccc3)n2n1
3. O=C(c1ccccc1)c1ccc2nc(-c3ccc(F)cc3)[nH]c2c1
4. Cc1ccc(-n2c(-c3cc4ccccc4nc3Cl)noc2=O)cc1

1: 90.7; 2: 94.8; 3: 35.9; 4: 64.5

---

Could you please report measured growth for the items listed next?
# Tested on: T-47D breast
# MEASUREMENT NOTES: NCI-60 one-dose screen, 48 h (100 = growth as untreated, 0 = no growth, -100 = all killed)
# CONDITIONS USED: 10 µM unless noted
The panel holds about 83,000 compounds, 20% with a hit somewhere; the sample as a whole holds those more often.
One number for each entry, in %.

For each of the molecules below, note its growth.
1. COc1ccc(/C=C/c2nc3ccccc3c(=O)n2CC(=O)Nc2ccc(OC)cc2)cc1
2. CC(=O)c1cccc(NC(=O)CCC(=O)NS(=O)(=O)c2ccc(C)cc2)c1

66.4
106

For each of the molecules below, note its growth.
1. CN1C(=O)/C(=C/c2ccc(C(=O)Nc3ncc(Cc4ccc(Cl)cc4Cl)s3)cc2)SC1=S
2. Cc1ccc(C(SCCNCc2cc(N(C)C)ccn2)(c2ccccc2)c2ccccc2)cc1
3. COc1c(F)ccc(C(=O)Nc2ccc3nc(NC(=O)C4CCCN(S(=O)(=O)c5cccc(Cl)c5)C4)sc3c2)c1F (stereo not given)
4. Cc1ccc(S(=O)(=O)c2nc(S(=O)(=O)c3ccc(C)cc3)c(N3CCN(C)CC3)s2)cc1
5. COc1ccc(C(=O)/C=C/c2cccc(Cl)c2)cc1S(N)(=O)=O
6. O=c1oc2ccc(Br)cc2cc1C1=CSc2nc3sc4c(c3c(=O)n2N=C1)CCCC4
7. COc1ccc(-c2nc(SCC(C)C)nc(NCCc3c[nH]c4ccccc34)c2C#N)cc1
8. COc1ccc(C(=O)Nc2n[nH]c(Nc3ccccc3)c2C#N)cc1

23.9
-39
53.1
38
-53.8
76.9
22.6
113

---

# System: ACHN renal
# MEASUREMENT NOTES: NCI-60 one-dose screen, 48 h (100 = growth as untreated, 0 = no growth, -100 = all killed)
# CONDITIONS USED: 10 µM unless noted
# Method: Growth inhibition of the ACHN human tumor cell line is measured as a screen for anti-cancer activity. Cells are grown in 96 well plates and exposed to the test compound for 48 hours. Compounds are tested at a single concentration, which is 10^-5 M for most compounds. The reported endpoint is percent growth (GI% or GIPRCNT), where numbers from 0 - 100% represent growth inhibition, and numbers from -100% - 0 represent cell death. For example, a value of 40 represents 60% growth inhibition. […]
About 83,000 compounds went through this panel and 20% of them were active in at least one assay; those are over-represented in the sample as a whole.
Could you please report measured growth for the items listed next?
Give bare numbers, in %.

Worked cases, growth given:
CC(=O)Nc1ccc(-n2cnc3ccc(-c4ccc(O)cc4)cc32)cc1 | 24.7
CC1(C)CC[C@]2(C(=O)Nc3ccc(F)cc3)CC[C@]3(C)C(=CCC4[C@@]5(C)C[C@@H](O)[C@H](O)[C@@](C)(CO)C5CC[C@]43C)C2C1 (stereo partly drawn) | 31.3
Cc1ccc(C2CC(c3ccc(S(=O)(=O)NCCNc4nc(Nc5ccc(F)cc5)nc(N(C)C)n4)cc3)=Nc3c(N)nc(N)nc3N2)cc1 (stereo not drawn) | 61
C#CCOc1ccc(/C=N/Nc2nc(-c3ccc(Cl)cc3)cs2)cc1OC | 68.6

For each of the compounds below, note its growth.
1. Cc1ccc(S(=O)(=O)c2nc(S(=O)(=O)c3ccc(C)cc3)c(Cl)s2)cc1
2. C=C1CCC2C3(C)COC(c4cccc(F)c4)OC3CCC2(C)C1C/C=C1/C(=O)OCC1O (stereo not drawn)
3. Cn1cc(NC(=O)c2cc(NC(=O)c3ccc(C#Cc4ccccc4)cc3)cn2C)cc1C(=O)NCCCN1CCOCC1
4. O=C(COc1ccc(NC(=O)Nc2ccc(Cl)c(Cl)c2)cc1)N=Nc1c(O)[nH]c2ccccc12

1: -92.3; 2: -89.6; 3: 63.8; 4: 36.9
